Every entry's value here was drawn from PubChem BioAssay (NCI).

Some molecules, each annotated with its measured growth.
Test system: SF-295 CNS
measurement.description: NCI-60 one-dose screen, 48 h (100 = growth as untreated, 0 = no growth, -100 = all killed)
experimental.context: 10 µM unless noted
The panel holds about 83,000 compounds, 20% with a hit somewhere; the sample as a whole holds those more often.
Field: numeric (%). Do not append units.

>>> readout_value("CC(=O)OCC1O[C@@H]([S-])C(OC(C)=O)[C@H](OC(C)=O)[C@@H]1OC(C)=O.[Au+].c1ccc(CN2[CH-]N(Cc3ccccc3)C(c3ccccc3)=C2c2ccccc2)cc1")
31.1
>>> readout_value("O=C(CC(O)c1ccccc1)Nc1ccccn1 (centres undefined)")
108

Q: Consider the molecule shown here: "OB(O)c1ccccc1" What is its recorded growth?
Ans: 97.7

Q: Consider the molecule shown here: "CCCCCCCC/C=C\CCCCCCCCOc1cccc(CC(=O)NCC[N+]2(C)CCOCC2)c1" What is its recorded growth?
Ans: 89.1

Q: Consider the molecule shown here: COc1c(O)c2c3c(c1OC)-c1ccccc1CC3N(S(=O)(=O)c1ccc(C)cc1)CC2 (centres undefined) What is its recorded growth?
Ans: 85.2

Q: Consider the molecule shown here: "Cc1ccc(N=c2nc3sc4c(C)ccc(C)c4n3c(N)c2C#N)cc1" What is its recorded growth?
Ans: 91.1
